# EXPERIMENT_NOTES: BET inhibitor-based combinations targeting novel dependencies in MECOM-rearranged (r) AML: UCSD-AML1 cell line (AID 2202235); note: nearly all actives have a fitted effect of over 40% in size; note: potency is the fitted concentration of half-maximal effect
# ASSAY_CONDITIONS: UCSD-AML1 AML cells viability, CellTiter-Glo, 48 h; series mostly up to 46 µM
Results filed as inconclusive are left out. Active and inactive are the calls of the source. Calls come from the whole dose curve; as a rule, active = well fitted inhibition curve with a large enough effect; inconclusive = small, poorly fitted or top-dose-only effect; inactive = no such curve, though single readings can be large or run the other way.
MEASURED_PROPERTY: Potency

Consider the worked cases shown below.
INSERT INTO results (molecule, result) VALUES
  ('CCCCCCCCCCCC(CC1OC(=O)C1CCCCCC)OC(=O)C(CC(C)C)NC=O (stereo not drawn)', 'inactive'),
  ('CC1(C)OC2=C(C(=O)c3ccccc3C2=O)[C@H](NCc2ccccc2)[C@@H]1O', '9.34 µM (active)'),
  ('[2H]c1nc(C)nc([2H])c1-c1cc(NC[C@@H](C)c2cccc3c(C(=O)NC)ccnc23)ncn1', 'inactive'),
  ('Cc1[nH]nc2ncc(C(=O)N3CCC[C@H]3c3ccc(Cl)cc3)cc12', 'inactive');

Input: So what's the measured Potency for this one? O=C(CCCCCCC(=O)N/N=C/c1ccc(N(c2ccccc2)c2ccccc2)cc1)NO
Output: 7.42 µM (active)

Input: So what's the measured Potency for this one? CC(=O)C1CCC2C3CCC4=CC(=O)CCC4(C)C3CCC12C (stereo not drawn)
Output: inactive

Input: So what's the measured Potency for this one? O=C(Nc1cnccc1Cl)N1CCN(Cc2ccc3c(c2)OC(F)(F)O3)CC1
Output: inactive

Input: So what's the measured Potency for this one? CO[C@H]1/C=C/O[C@@]2(C)Oc3c(C)c(O)c4c(O)c(c(/C=N/N5CCN(C)CC5)c(O)c4c3C2=O)NC(=O)/C(C)=C\C=C\[C@H](C)[C@H](O)[C@@H](C)[C@@H](O)[C@@H](C)[C@H](OC(C)=O)[C@@H]1C
Output: inactive
